System: PLK3;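 also: KINOMEscan kinase panel screen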
Details: concentration: 1 μM, replicates: in singlicate; n = 1
OBSERVED_PROPERTY: %Inh (%)
# output: bare number, implied unit %

Give reported %Inh value for COc1cc2ncn(-c3cc(OCCCc4ccccc4)c(C(N)=O)s3)c2cc1OC [GSK205189]
92.3

Give reported %Inh value for CCn1c(-c2ccoc2)nc2cnccc21 [SB-733887]
0

Give reported %Inh value for COc1cccc(C2=C(N(C)c3ccccc3)C(=O)NC2=O)c1 [SB-334865]
0

Give reported %Inh value for C[C@@H]1CC[C@H](C(=O)NC2CCCCC2)CN1c1cc(-c2ccc3c(N)n[nH]c3c2)nc(N)n1 [GSK2291363]
0

Give reported %Inh value for Cc1nnc(-c2ccc3ncn(-c4ccc(S(C)=O)cc4)c3c2)o1 (stereo not shown)
9

Give reported %Inh value for `COC(=O)c1c(-c2ccccc2)c2cc(Br)ccc2c(=O)n1Cc1ccc(NC(=O)CCC(=O)O)cc1`
5

Give reported %Inh value for `Cc1ccc(-c2ccc3c(ccc4sc5c(c43)NC[C@@H](C)N=C5N(C)C)n2)cn1`
0

Give reported %Inh value for COc1cccc(C2=C(Nc3cccc(C(=O)O)c3)C(=O)NC2=O)c1 [SB-390770]
0

Give reported %Inh value for `CCC(=O)c1c(-c2ccccc2)c2cc(Cl)ccc2c(=O)n1Cc1cc(S(C)(=O)=O)n(CC(N)=O)n1`
0

Give reported %Inh value for Nc1n[nH]c2ncc(-c3ccccc3)cc12 [SB-517081]
0

Give reported %Inh value for Cc1nn2c(=O)cc(N3CCOCC3)nc2n1Cc1cccc(Cl)c1Cl [GSK2342769]
0

Give reported %Inh value for Cc1nnc(-c2ccc(C)c(-c3ccc(C(=O)O)cc3)c2)o1 [GW608005]
0

Give reported %Inh value for `COc1ccc(-c2coc3ccc(-c4nnc(SCc5cccc(C#N)c5)o4)cc23)cc1`
12

Give reported %Inh value for `COc1ccc(-c2cc3c(C)nc(N)nc3n([C@H]3CC[C@H](OCCO)CC3)c2=O)cn1`
0

Give reported %Inh value for FC(F)(F)c1ccc(-c2ncn(CCCN3CCOCC3)c2-c2ccncc2)cc1 [SB-217780]
0

Give reported %Inh value for O=C(Nc1n[nH]c2nc(-c3ccccc3)c(Cl)cc12)C1CC1 [SB-734909]
13

Give reported %Inh value for `Cc1nc(N(C)[C@H]2CN(C(=O)CC#N)CC[C@H]2C)c2cc[nH]c2n1`
0

Give reported %Inh value for CCS(=O)(=O)c1ccc(OC)c(Nc2ncc(-c3ccc(F)cc3)o2)c1.Cl [GW591947]
0

Give reported %Inh value for Cl.c1ccc(Cn2cnc3cc(Nc4ncnc5ccccc45)ccc32)cc1 [GW272142]
0

Data origin: paper PMC5540273
